- ASSAY_TARGET: Thyroid hormone receptor beta (Homo sapiens)
- Sequence (P10828 whole entry): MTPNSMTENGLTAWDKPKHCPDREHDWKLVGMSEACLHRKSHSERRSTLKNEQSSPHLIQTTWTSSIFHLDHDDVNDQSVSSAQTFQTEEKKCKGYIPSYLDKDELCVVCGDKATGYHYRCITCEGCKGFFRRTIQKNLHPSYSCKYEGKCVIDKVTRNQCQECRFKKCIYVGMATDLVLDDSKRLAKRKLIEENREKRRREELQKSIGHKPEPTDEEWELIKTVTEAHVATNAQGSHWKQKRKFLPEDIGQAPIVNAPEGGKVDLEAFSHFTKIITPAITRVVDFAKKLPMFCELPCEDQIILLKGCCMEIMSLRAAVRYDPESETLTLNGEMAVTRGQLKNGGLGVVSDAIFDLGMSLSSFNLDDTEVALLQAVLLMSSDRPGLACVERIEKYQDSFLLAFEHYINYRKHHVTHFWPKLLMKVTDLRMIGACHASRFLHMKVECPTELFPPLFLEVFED
- ASSAY_EXPLANATION: Inhibition of TRbeta-LBD (unknown origin) interaction to texas red-labeled SRC2-2 peptide by fluorescence polarization assay
pIC50: −log10 of the molar value.
RECORDED_ENDPOINT: pIC50

CS(=O)(=O)c1ccc(C(=O)NCCCC(=O)N2CCN(c3ccc(C(F)(F)F)cc3)CC2)cc1[N+](=O)[O-]	< 4.22
CN1CCN(C(=O)C2CCN(C(=O)c3ccc(S(C)(=O)=O)c([N+](=O)[O-])c3)CC2)CC1	< 4.22

Consider now this further compound.
Look up pIC50 for this compound: "CS(=O)(=O)c1ccc(C(=O)NCC(=O)N2CCN(c3ccc(F)cc3)CC2)cc1[N+](=O)[O-]"
< 4.22

---

Listed here: items and their measured pIC50.
- ASSAY_TARGET: Thyroid hormone receptor beta (Homo sapiens, UniProt P10828)
- ASSAY_EXPLANATION: Inhibition of TRbeta-LBD (unknown origin) interaction to texas red-labeled SRC2-2 peptide by fluorescence polarization assay
pIC50: −log10 of the molar value.

CS(=O)(=O)c1ccc(C(=O)NCCC(=O)N2CCCc3ccccc32)cc1[N+](=O)[O-]	< 4.22

Look up pIC50 for this molecule: "CN(Cc1cccc(F)c1)C(=O)C1CCN(C(=O)c2ccc(S(C)(=O)=O)c([N+](=O)[O-])c2)CC1"
< 4.22

Look up pIC50 for this molecule: CC1Cc2ccccc2N1C(=O)CCCNC(=O)c1ccc(S(C)(=O)=O)c([N+](=O)[O-])c1 (stereo not drawn)
< 4.22

Look up pIC50 for this molecule: "CCCN(C(=O)CCNC(=O)c1ccc(S(C)(=O)=O)c([N+](=O)[O-])c1)c1ccccc1"
4.30

---

- ASSAY_TARGET: UniProtKB P10827
- Sequence (P10827 whole entry): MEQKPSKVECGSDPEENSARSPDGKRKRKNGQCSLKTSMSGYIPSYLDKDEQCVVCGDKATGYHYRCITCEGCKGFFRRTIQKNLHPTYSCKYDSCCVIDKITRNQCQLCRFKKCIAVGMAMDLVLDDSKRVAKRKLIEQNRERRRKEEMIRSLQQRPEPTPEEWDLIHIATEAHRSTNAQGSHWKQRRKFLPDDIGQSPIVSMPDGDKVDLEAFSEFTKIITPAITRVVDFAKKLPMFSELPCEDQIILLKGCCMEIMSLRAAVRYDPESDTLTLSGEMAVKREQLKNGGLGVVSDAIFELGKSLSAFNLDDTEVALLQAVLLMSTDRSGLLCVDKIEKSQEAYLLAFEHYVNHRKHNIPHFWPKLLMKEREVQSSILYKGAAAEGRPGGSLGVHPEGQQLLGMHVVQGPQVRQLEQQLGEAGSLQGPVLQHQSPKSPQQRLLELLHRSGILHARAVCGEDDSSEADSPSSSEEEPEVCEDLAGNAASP
- ASSAY_EXPLANATION: Inhibition of TRalpha-LBD (unknown origin) interaction to texas red-labeled SRC2-2 peptide by fluorescence polarization assay
Listed here: items and their measured pIC50.
Here pIC50 is given on a logarithmic scale as minus log10 of the concentration in mol/L.

CS(=O)(=O)c1ccc(C(=O)NCC(=O)N(Cc2ccccc2)Cc2ccccc2)cc1[N+](=O)[O-]	5.77

Consider now this further compound.
Look up pIC50 for this compound: "CS(=O)(=O)c1ccc(C(=O)NCC(=O)N2CCC(c3ccccc3)CC2)cc1[N+](=O)[O-]"
4.36
